Measured MIC ATB combined with compound, listed per entry for reference.
# Test system: PAE 105250
# assayDetails: MIC, broth microdilution (CLSI), substance alone or ATB combined with compound at 4 or 8 μg/mL
# Assay type: cell-based, P. aeruginosa
# reportedConditions: ATB FEP; compound @4 μg/ml; PAE 105250
# Method: Compounds of the present invention were assessed against genotyped bacterial strains alone or in combination with an antibacterial. In the assays, MICs of said compounds or combination of antibiotics with fixed concentrations of said compounds (4 or 8 μg/mL) were determined by the broth microdilution method according to the Clinical Laboratory Standards Institute (CLSI-M7-A7). […]
// units = µg/mL; emit number, no label

NCCON=C1C[C@@H](C(N)=O)N2C[C@@H]1N(OS(=O)(=O)[O-])C2=O.[Na+] [Example 2]	4

[Q] Can you share its MIC ATB combined with compound? I mean this compound: O=C1N2CC(c3ncco3)=C[C@H](C2)N1OS(=O)(=O)[O-].[Na+] [Example 9]
[A] 8

* * *

Measured MIC, listed per entry for reference.
# System: ECO 190317
# assayDetails: MIC, broth microdilution (CLSI), substance alone or ATB combined with compound at 4 or 8 μg/mL
# Assay type: cell-based, E. coli
# reportedConditions: substance alone; ECO 190317
// units = µg/mL; emit number, no label

Use the examples below as a reference point.
O=C1N2CC(n3ccnn3)=CC(C2)N1OS(=O)(=O)[O-].[Na+] (stereo not shown)	1
O=C(O)C(F)(F)F.O=C1N2C[C@H](c3scnc3[C@H]2c2ncc[nH]2)N1OS(=O)(=O)[O-].[Na+] (relative stereo)	1
NC[C@@H]1CC(=NOCC(N)=O)[C@@H]2CN1C(=O)N2OS(=O)(=O)[O-].O=C(O)C(F)(F)F.[Na+]	0.25

Now consider the entry below.
[Q] Can you share its MIC? I mean this compound: O=C1N2CC(n3ccnn3)=C[C@H](C2)N1OS(=O)(=O)[O-].[Na+]
[A] 0.5

* * *

# System: PAE UFR48
# assayDetails: MIC, broth microdilution (CLSI), substance alone or ATB combined with compound at 4 or 8 μg/mL
# Format: cell-based, P. aeruginosa
# reportedConditions: PAE UFR48; with Example 9 at 4 μg/ml
valueType: MIC ATB combined with Example 9 @4 μg/ml (µg/mL)
// units = µg/mL; emit number, no label

Use the examples below as a reference point.
C[C@@H](O)[C@H]1C(=O)N2C(C(=O)O)=C(SCCN=CN)C[C@H]12	16
NCC[C@H](O)C(=O)N[C@@H]1C[C@H](N)[C@@H](O[C@H]2O[C@H](CN)[C@@H](O)[C@H](O)[C@H]2O)[C@H](O)[C@H]1O[C@H]1O[C@H](CO)[C@@H](O)[C@H](N)[C@H]1O [AN, Amikacin, reference compound]	32

Now consider the entry below.
[Q] Can you share its MIC ATB combined with Example 9 @4 μg/ml? I mean this compound: CN(C)c1cc(NC(=O)CNC(C)(C)C)c(O)c2c1C[C@H]1C[C@H]3[C@H](N(C)C)C(O)=C(C(N)=O)C(=O)[C@@]3(O)C(O)=C1C2=O
[A] 32

* * *

# System: KPN BAA-1898
# assayDetails: MIC, broth microdilution (CLSI), substance alone or ATB combined with compound at 4 or 8 μg/mL
# Type: cell-based, K. pneumoniae
# reportedConditions: KPN BAA-1898; with Example 13 at 8 μg/ml
Measured MIC ATB combined with Example 13 @8 μg/ml, listed per entry for reference.
// units = µg/mL; emit number, no label

CO/N=C(\C(=O)N[C@@H]1C(=O)N2C(C(=O)[O-])=C(C[n+]3cccc4c3CCC4)CS[C@H]12)c1csc(N)n1	0.5
C=CC1=C(C(=O)O)N2C(=O)[C@@H](NC(=O)/C(=N\OCC(=O)O)c3csc(N)n3)[C@H]2SC1 [FIX, Cefixime, reference compound]	0.5

[Q] Can you share its MIC ATB combined with Example 13 @8 μg/ml? I mean this compound: COCC1=C(C(=O)O)N2C(=O)[C@@H](NC(=O)/C(=N\OC)c3csc(N)n3)[C@H]2SC1 [POD, Cefpodoxime, reference compound]
[A] 1

* * *

# System: PAE 105250
# assayDetails: MIC, broth microdilution (CLSI), substance alone or ATB combined with compound at 4 or 8 μg/mL
# Format: cell-based, P. aeruginosa
# reportedConditions: PAE 105250; with Example 16 at 4 μg/ml
Measured MIC ATB combined with Example 16 @4 μg/ml, listed per entry for reference.

Use the examples below as a reference point.
NCC[C@H](O)C(=O)N[C@@H]1C[C@H](N)[C@@H](O[C@H]2O[C@H](CN)[C@@H](O)[C@H](O)[C@H]2O)[C@H](O)[C@H]1O[C@H]1O[C@H](CO)[C@@H](O)[C@H](N)[C@H]1O [AN, Amikacin, reference compound]	1 µg/mL
CO/N=C(\C(=O)N[C@@H]1C(=O)N2C(C(=O)O)=C(COC(N)=O)CS[C@H]12)c1ccco1 [FUR, Cefuroxime, reference compound]	>32 µg/mL
COCC1=C(C(=O)O)N2C(=O)[C@@H](NC(=O)/C(=N\OC)c3csc(N)n3)[C@H]2SC1 [POD, Cefpodoxime, reference compound]	>32 µg/mL
C=CC1=C(C(=O)O)N2C(=O)[C@@H](NC(=O)/C(=N\OCC(=O)O)c3csc(N)n3)[C@H]2SC1 [FIX, Cefixime, reference compound]	>32 µg/mL
CO/N=C(\C(=O)N[C@@H]1C(=O)N2C(C(=O)O)=C(CSc3nc(=O)c(O)nn3C)CS[C@H]12)c1csc(N)n1	>32 µg/mL

[Q] Can you share its MIC ATB combined with Example 16 @4 μg/ml? I mean this compound: O=C(N[C@H](CO)[C@H](O)c1ccc([N+](=O)[O-])cc1)C(Cl)Cl
[A] >32 µg/mL

* * *

# Test system: KPN BAA-1898
# assayDetails: MIC, broth microdilution (CLSI), substance alone or ATB combined with compound at 4 or 8 μg/mL
# Type: cell-based, K. pneumoniae
# reportedConditions: Klebsiella pneumoniae, BAA1898; substance alone; KPN BAA-1898; read-out: MIC
Measured MIC, listed per entry for reference.
// units = µg/mL; emit number, no label

NCCn1c2c(sc1=O)C1CN(C2)C(=O)N1OS(=O)(=O)[O-].[Na+] (stereo not shown) [Example 3]	16
O=C1N2CC(n3cccn3)=CC(C2)N1OS(=O)(=O)[O-].[Na+] (stereo not shown) [Example 11]	8
CO/N=C(\C(=O)N[C@@H]1C(=O)N2C(C(=O)[O-])=C(C[N+]3(C)CCCC3)CS[C@H]12)c1csc(N)n1 [FEP, Cefepime]	64
O=C1N2CC(c3cccnc3)=CC(C2)N1OS(=O)(=O)[O-].[Na+] (stereo not shown) [Example 8]	8
O=C1N2CC(c3ncco3)=C[C@H](C2)N1OS(=O)(=O)[O-].[Na+] [Example 9]	2
NC[C@@H]1C(c2ncco2)=C[C@@H]2CN1C(=O)N2OS(=O)(=O)[O-].O=C(O)C(F)(F)F.[Na+] [Example 5]	16

[Q] Can you share its MIC? I mean this molecule: O=C1N2CC(n3cccn3)=C[C@H](C2)N1OS(=O)(=O)[O-].[Na+] [Example 15]
[A] 4

[Q] Can you share its MIC? I mean this molecule: C[C@@H]1O[C@@H]1P(=O)(O)O [FOS, Fosfomycin, reference compound]
[A] 64

[Q] Can you share its MIC? I mean this molecule: NCCCn1c2c(sc1=O)C1CN(C2)C(=O)N1OS(=O)(=O)O (stereo not shown) [Example 10]
[A] 16

[Q] Can you share its MIC? I mean this molecule: O=C1N2CC(n3cncn3)=CC(C2)N1OS(=O)(=O)[O-].[Na+] (stereo not shown) [Example 14]
[A] 4

* * *

Measured MIC ATB combined with Example 12 @8 μg/ml, listed per entry for reference.
# System: PAE UFR90
# assayDetails: MIC, broth microdilution (CLSI), substance alone or ATB combined with compound at 4 or 8 μg/mL
# Assay type: cell-based, P. aeruginosa
# reportedConditions: PAE UFR90; with Example 12 at 8 μg/ml

[Q] What is its MIC ATB combined with Example 12 @8 μg/ml for PAE UFR90? Entry: O=C(N[C@H](CO)[C@H](O)c1ccc([N+](=O)[O-])cc1)C(Cl)Cl [CM]
[A] >32 µg/mL

[Q] What is its MIC ATB combined with Example 12 @8 μg/ml for PAE UFR90? Entry: CO/N=C(\C(=O)N[C@@H]1C(=O)N2C(C(=O)O)=C(CSc3nc(=O)c(O)nn3C)CS[C@H]12)c1csc(N)n1 [CTR]
[A] >32 µg/mL

[Q] What is its MIC ATB combined with Example 12 @8 μg/ml for PAE UFR90? Entry: C=CC1=C(C(=O)O)N2C(=O)[C@@H](NC(=O)/C(=N\OCC(=O)O)c3csc(N)n3)[C@H]2SC1 [FIX, Cefixime, reference compound]
[A] >32 µg/mL

[Q] What is its MIC ATB combined with Example 12 @8 μg/ml for PAE UFR90? Entry: C[C@@H](O)[C@H]1C(=O)N2C(C(=O)O)=C(SCCN=CN)C[C@H]12 [IMI]
[A] 2 µg/mL
